# STUDY_SYSTEM: full-length beta-Catenin (Uniprot ID P35222) (Homo sapiens)
# Construct: 10 nM full-length beta-Catenin (Uniprot ID P35222)
# Sequence (P35222 1-781): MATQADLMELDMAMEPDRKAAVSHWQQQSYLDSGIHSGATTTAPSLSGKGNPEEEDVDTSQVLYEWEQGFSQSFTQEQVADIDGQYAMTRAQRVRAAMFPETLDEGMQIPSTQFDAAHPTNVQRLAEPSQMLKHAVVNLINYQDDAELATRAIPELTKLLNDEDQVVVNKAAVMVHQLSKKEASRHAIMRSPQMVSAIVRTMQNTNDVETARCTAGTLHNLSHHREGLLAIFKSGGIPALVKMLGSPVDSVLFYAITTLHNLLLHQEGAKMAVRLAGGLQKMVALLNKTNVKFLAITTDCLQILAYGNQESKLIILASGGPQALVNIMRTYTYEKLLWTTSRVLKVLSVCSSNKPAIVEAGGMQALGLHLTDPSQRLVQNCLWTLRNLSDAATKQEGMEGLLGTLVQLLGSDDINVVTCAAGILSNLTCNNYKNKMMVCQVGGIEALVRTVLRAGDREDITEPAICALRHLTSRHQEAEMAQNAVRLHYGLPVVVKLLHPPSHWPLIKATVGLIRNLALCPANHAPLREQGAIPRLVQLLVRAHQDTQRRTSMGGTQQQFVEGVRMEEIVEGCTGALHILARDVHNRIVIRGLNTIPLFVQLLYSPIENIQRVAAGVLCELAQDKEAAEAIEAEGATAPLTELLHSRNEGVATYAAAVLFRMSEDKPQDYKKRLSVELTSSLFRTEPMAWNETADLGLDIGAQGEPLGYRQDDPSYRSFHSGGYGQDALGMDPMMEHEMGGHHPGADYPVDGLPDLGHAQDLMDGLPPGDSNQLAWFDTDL
# ASSAY_OVERVIEW: Fluorescence polarization IC50 (beta-catenin / 5FAM-TCF4 10-53 competition)
# Format: binding
# APPLIED_CONDITIONS: fluorescence polarization; read-out: beta-Catenin FP IC50
# IC50 per record follows

[
  {
    "COMPOUND": "CC[C@H](C)[C@@H]1NC(=O)[C@H](CC(=O)O)NC(=O)[C@]2(CC=CCCCC3(CCCC=CCCCCCC[C@@](C)(C(=O)N[C@@H](Cc4ccsc4)C(=O)N[C@@H](Cc4csc5ccccc45)C(N)=O)NC(=O)[C@H](CC(N)=O)NC(=O)[C@H](Cc4ccccc4)NC(=O)[C@H](C)NC(=O)[C@H](C)NC(=O)[C@H](CCC(=O)O)NC(=O)[C@H](CC(=O)O)NC3=O)NC1=O)CCCN2C(C)=O (stereo partly drawn) [I-721]",
    "IC50": "46 nM"
  },
  {
    "COMPOUND": "CCCCCCSSCCOC(=O)C[C@@H]1NC(=O)[C@]2(CC=CCCCC3(CCCC=CCCCOC(=O)N4CC[C@@](C(=O)N[C@@H](Cc5ccsc5)C(=O)N[C@@H](Cc5csc6ccccc56)C(=O)N[C@@H](CCC(N)=O)C(N)=O)(C4)NC(=O)[C@H](CC(C)C)NC(=O)[C@H](Cc4ccccc4)NC(=O)[C@H](C)NC(=O)[C@H](C)NC(=O)[C@H](CC(=O)O)NC(=O)[C@H](CC(=O)O)NC3=O)NC(=O)[C@H](CC(C)(C)C)NC1=O)CCCN2C(C)=O (stereo partly drawn) [I-1960]",
    "IC50": "544 nM"
  },
  {
    "COMPOUND": "CC(=O)N1CCC[C@]12CC=CCCCC1(CCCC=CCCCCCC[C@@](C)(C(=O)N[C@@H](Cc3ccccc3)C(=O)N[C@@H](Cc3csc4ccccc34)C(=O)N[C@@H](CC(N)=O)C(N)=O)NC(=O)[C@H](CC(N)=O)NC(=O)[C@H](Cc3ccccc3)NC(=O)[C@H](C)NC(=O)[C@H](C)NC(=O)[C@H](CCC(=O)O)NC(=O)[C@H](CC(=O)O)NC1=O)NC(=O)[C@H](CC(C)C)NC(=O)[C@H](CC(=O)O)NC2=O (stereo partly drawn) [I-753]",
    "IC50": "14 nM"
  },
  {
    "COMPOUND": "CC(=O)N1CCC[C@]12CC=CCCCC1(CCCC=CCCCCCC[C@@](C)(C(=O)N[C@@H](CCc3ccccc3)C(=O)N[C@@H](Cc3csc4ccccc34)C(=O)N[C@@H](CCC(N)=O)C(N)=O)NC(=O)[C@H](CC(N)=O)NC(=O)[C@H](Cc3ccccc3)NC(=O)[C@H](C)NC(=O)[C@H](C)NC(=O)[C@H](CCC(=O)O)NC(=O)[C@H](CC(=O)O)NC1=O)NC(=O)[C@H](C)NC(=O)[C@H](CC(=O)O)NC2=O (stereo partly drawn) [I-442]",
    "IC50": "4480 nM"
  },
  {
    "COMPOUND": "CC[C@H](C)[C@@H]1NC(=O)[C@H](CC(=O)O)NC(=O)[C@]2(CC=CCCCC3(CCCC=CCCCCCC[C@@](C)(C(=O)N[C@@H](Cc4ccccc4)C(=O)N[C@@H](Cc4csc5ccccc45)C(=O)N[C@@H](CC(N)=O)C(N)=O)NC(=O)[C@H](CCC(N)=O)NC(=O)[C@H](Cc4ccccc4)NC(=O)[C@H](C)NC(=O)[C@H](C)NC(=O)[C@H](CCC(=O)O)NC(=O)[C@H](CC(=O)O)NC3=O)NC1=O)CCCN2C(C)=O (stereo partly drawn) [I-495]",
    "IC50": "181 nM"
  },
  {
    "COMPOUND": "CC(=O)N(CC[C@@H]1NC(=O)[C@H](CC(=O)O)NC(=O)C2(CCCC=CCCCOC(=O)N3CC[C@@](C(=O)N[C@@H](Cc4ccsc4)C(=O)N[C@@H](Cc4csc5ccccc45)C(=O)N[C@@H](CCC(N)=O)C(N)=O)(C3)NC(=O)[C@H](CC(C)C)NC(=O)[C@H](Cc3ccccc3)NC(=O)[C@H](C)NC(=O)[C@H](C)NC1=O)CCCC=CC[C@]1(CCCN1C(C)=O)C(=O)N[C@@H](CC(=O)O)C(=O)N[C@@H](CC(C)(C)C)C(=O)N2)CC(=O)O (stereo partly drawn) [I-1840]",
    "IC50": "14 nM"
  },
  {
    "COMPOUND": "CC(=O)N1CCC[C@]12CC=CCCCC1(CCCC=CCCCOC(=O)N3CC[C@@](C(=O)N[C@@H](Cc4ccsc4)C(=O)N[C@@H](Cc4csc5ccccc45)C(=O)N[C@@H](CCC(N)=O)C(N)=O)(C3)NC(=O)[C@H](CC(C)C)NC(=O)[C@H](Cc3ccccc3)NC(=O)[C@H](C)NC(=O)[C@H](C)NC(=O)[C@H](CCn3cc(CC(C)(C)C(=O)O)nn3)NC(=O)[C@H](CC(=O)O)NC1=O)NC(=O)[C@H](CC(C)(C)C)NC(=O)[C@H](CC(=O)O)NC2=O (stereo partly drawn) [I-2077]",
    "IC50": "9 nM"
  },
  {
    "COMPOUND": "CC(=O)N1CCC[C@]12CC=CCCCC1(CCCC=CCCCOC(=O)N3CC[C@@](C(=O)N[C@@H](Cc4ccccc4C(F)(F)F)C(=O)N[C@@H](Cc4csc5ccccc45)C(=O)N[C@@H](CCC(N)=O)C(=O)N[C@@H](CC(C)C)C(=O)N[C@@H](Cc4c[nH]c5ccccc45)C(N)=O)(C3)NC(=O)[C@H](CC(C)C)NC(=O)[C@H](Cc3ccccc3)NC(=O)[C@H](C)NC(=O)[C@H](C)NC(=O)[C@H](Cc3cccc(C(=O)O)c3)NC(=O)[C@H](CC(=O)O)NC1=O)NC(=O)[C@H](CC(C)(C)C)NC(=O)[C@H](CC(=O)O)NC2=O (stereo partly drawn) [I-2394]",
    "IC50": "535 nM"
  },
  {
    "COMPOUND": "CC(C)C[C@@H]1NC(=O)[C@H](Cc2ccccc2)NC(=O)[C@H](C)NC(=O)[C@H](C)NC(=O)[C@H](CN(CC(=O)O)CC(F)(F)F)NC(=O)[C@H](CC(=O)O)NC(=O)C2(CCCCCCCCOC(=O)N3CC[C@@](C(=O)N[C@@H](Cc4ccsc4)C(=O)N[C@@H](Cc4csc5ccccc45)C(=O)N[C@@H](CCC(N)=O)C(N)=O)(C3)NC1=O)CCCCCCOc1cccc(c1)C(=O)N1CCC[C@H]1C(=O)N[C@@H](CC(=O)O)C(=O)N[C@@H](CC(C)(C)C)C(=O)N2 (stereo partly drawn) [I-2377]",
    "IC50": "978 nM"
  }
]
